Biological target: Human recombinant PDE2A (hPDE2A) (Homo sapiens, UniProt O00408)
Construct: made in house; host or cells: Sf9 insect cells (baculovirus)
Sequence (O00408 whole entry): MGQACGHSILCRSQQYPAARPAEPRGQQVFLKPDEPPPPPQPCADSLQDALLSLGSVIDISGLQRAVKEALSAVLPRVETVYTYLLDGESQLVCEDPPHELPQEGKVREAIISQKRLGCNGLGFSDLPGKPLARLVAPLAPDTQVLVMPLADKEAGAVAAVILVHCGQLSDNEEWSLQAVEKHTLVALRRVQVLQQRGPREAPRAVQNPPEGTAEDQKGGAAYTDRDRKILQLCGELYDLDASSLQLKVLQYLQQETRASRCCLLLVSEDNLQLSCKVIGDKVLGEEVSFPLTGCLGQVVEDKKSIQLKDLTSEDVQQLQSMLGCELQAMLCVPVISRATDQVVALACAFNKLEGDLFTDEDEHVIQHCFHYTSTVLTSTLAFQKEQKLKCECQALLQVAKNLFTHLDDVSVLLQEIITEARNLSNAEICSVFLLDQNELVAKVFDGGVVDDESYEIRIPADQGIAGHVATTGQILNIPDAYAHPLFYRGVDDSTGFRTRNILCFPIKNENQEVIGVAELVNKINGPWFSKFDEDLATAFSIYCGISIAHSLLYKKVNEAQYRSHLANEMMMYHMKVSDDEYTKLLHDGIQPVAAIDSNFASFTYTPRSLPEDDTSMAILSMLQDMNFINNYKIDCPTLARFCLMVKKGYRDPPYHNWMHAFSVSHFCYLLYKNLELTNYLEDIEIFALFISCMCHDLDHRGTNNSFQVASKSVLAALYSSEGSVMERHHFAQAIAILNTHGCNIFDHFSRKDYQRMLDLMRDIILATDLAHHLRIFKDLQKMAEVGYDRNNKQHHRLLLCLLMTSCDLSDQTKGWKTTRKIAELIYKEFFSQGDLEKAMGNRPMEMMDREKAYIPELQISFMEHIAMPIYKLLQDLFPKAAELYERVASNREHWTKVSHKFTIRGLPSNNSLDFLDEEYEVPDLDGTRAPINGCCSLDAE
Test: In vitro assay PDE2A (SPA, 3H-cGMP)
Format: biochemical
assay readout: pIC50
The value called pIC50 is obtained by taking minus log10 of the concentration in mol/L.

Fill in the blank: the reported pIC50 of Cc1nc2ccc(CN3CCOC(CO)C3)cc2n2c(-c3ccccc3Cl)nnc12 (stereo not shown) [Compound B-55] is ____.
8.46

---

Would you kindly list IC50 for each of these molecules?
Biological target: Rat recombinant PDE10A (rPDE10A2) (Rattus norvegicus, UniProt Q9QYJ6)
Construct: made in house; host or cells: Sf9 insect cells (baculovirus)
Test: In vitro assay PDE10A (SPA, 3H-cAMP)
Assay type: biochemical
Conditions: -log IC50 expressed in mol/L; rPDE10A2, 60 nM cAMP; read-out: PIC50 PDE10 (converted)
Only the number, expressed in µM, is required.

Fill in the blank: the reported IC50 of CCNC(=O)c1ccc2nc(C)c3nnc(-c4cccnc4)n3c2c1 [Compound B-127] is ____.
1.82

Fill in the blank: the reported IC50 of CCOC(=O)c1ccc2nc(C)c3nnc(-c4ccccc4)n3c2c1 [Compound B-2a] is ____.
0.295

Fill in the blank: the reported IC50 of CCOC(=O)c1ccc2nc(C)c3nnc(-c4ccccc4Cl)n3c2c1 [Compound B-1a] is ____.
0.0589

Fill in the blank: the reported IC50 of CCNC(=O)c1ccc2nc(C)c3nnc(-c4cccnc4)n3c2c1 [Compound B-143] is ____.
1.35

---

Would you kindly list PO Max effect (cumulative agitation score over 60 min) for each of these molecules?
Tested on: Apomorphine-induced agitation
Test: Reversal of Apomorphine-induced Agitation in Rats (APO)
Assay type: in vivo, rat
Conditions: oral route; apomorphine 1.0 mg/kg i.v.
Kindly provide the number alone.

Fill in the blank: the reported PO Max effect (cumulative agitation score over 60 min) of COc1ccc(Cl)c(-c2nnc3c(C)nc4ccc(CN5CCOCC5)cc4n23)c1 [Compound B-84] is ____.
21

Fill in the blank: the reported PO Max effect (cumulative agitation score over 60 min) of COc1cc(NC(=O)c2ccc3nc(C)c4nnc(-c5ccccc5Cl)n4c3c2)cc(OC)c1OC [Compound B-49] is ____.
24

Fill in the blank: the reported PO Max effect (cumulative agitation score over 60 min) of COc1ccc2nc(C)c3nnc(-c4ccccc4Cl)n3c2c1 [Compound B-5] is ____.
21

Fill in the blank: the reported PO Max effect (cumulative agitation score over 60 min) of COc1ccc(-c2nnc3c(C)nc4ccc(C(=O)NCc5ccccn5)cc4n23)c(Cl)c1 [Compound B-74] is ____.
21

---

Would you kindly list IC50 for each of these molecules?
Molecular target: Rat recombinant PDE10A (rPDE10A2) (Rattus norvegicus, UniProt Q9QYJ6)
Construct: made in house; host or cells: Sf9 insect cells (baculovirus)
Experiment: In vitro assay PDE10A (SPA, 3H-cAMP)
Format: biochemical
Conditions: read-out: PIC50 PDE10 (converted)
Please report the result as a number followed by the unit.

Fill in the blank: the reported IC50 of `CCOc1ccc(Cl)c(-c2nnc3c(C)nc4ccc(CN5CCN(C)CC5)cc4n23)c1` is ____.
240 nM

Fill in the blank: the reported IC50 of `Cc1ccc(Cl)c(-c2nnc3c(C)nc4ccc(C(=O)NCc5ccccn5)cc4n23)c1` is ____.
35.5 nM

Fill in the blank: the reported IC50 of `COc1ccc(-c2nnc3c(C)nc4ccc(C(=O)NCc5ccccn5)cc4n23)c(Cl)c1` is ____.
129 nM

Fill in the blank: the reported IC50 of `CCCCOc1ccc(Cl)c(-c2nnc3c(C)nc4ccc(CNCC)cc4n23)c1` is ____.
5500 nM

Fill in the blank: the reported IC50 of `Cc1nc2ccc(C(=O)NCc3ccccc3)cc2n2c(-c3ccccc3Cl)nnc12` is ____.
12 nM

Fill in the blank: the reported IC50 of `Cc1nc2ccc(CN3CCOCC3)cc2n2c(-c3ccc(F)cc3Cl)nnc12` is ____.
85.1 nM

Fill in the blank: the reported IC50 of `Cc1nc2ccc(NCCc3ccccn3)cc2n2c(-c3ccccc3Cl)nnc12` is ____.
6.61 nM

Fill in the blank: the reported IC50 of `CCOCc1cncc(-c2nnc3c(C)nc4ccc(CN5CCOCC5)cc4n23)c1` is ____.
7760 nM

Fill in the blank: the reported IC50 of `Cc1nc2ccc(C(=O)NCCF)cc2n2c(-c3ccccc3Cl)nnc12` is ____.
18.6 nM

Fill in the blank: the reported IC50 of `Cc1nc2ccc(C(=O)C3CC3)cc2n2c(-c3ccccc3Cl)nnc12` is ____.
31.6 nM

Fill in the blank: the reported IC50 of `Cc1nc2cc(OCCc3ccccn3)ccc2n2c(-c3ccccc3Cl)nnc12` is ____.
63.1 nM

Fill in the blank: the reported IC50 of `Cc1ncccc1-c1nnc2c(C)nc3ccc(C(F)(F)F)cc3n12` is ____.
263 nM

Fill in the blank: the reported IC50 of `Cc1nc2ccc(CN3CCC(F)CC3)cc2n2c(-c3cncc(OCC4CC4)c3)nnc12` is ____.
3890 nM

Fill in the blank: the reported IC50 of `CCCCOc1ccc(Cl)c(-c2nnc3c(C)nc4ccc(CN5CCC(F)CC5)cc4n23)c1` is ____.
1780 nM

Fill in the blank: the reported IC50 of `Cc1nc2ccc(N)cc2n2c(-c3ccccc3Cl)nnc12` is ____.
29.5 nM

Fill in the blank: the reported IC50 of COCC1CN(Cc2ccc3nc(C)c4nnc(-c5ccccc5Cl)n4c3c2)CCO1 (centres unmarked) is ____.
63.1 nM

Fill in the blank: the reported IC50 of `Cc1nc2ccc(C(=O)NCCCc3ccccc3)cc2n2c(-c3ccccc3)nnc12` is ____.
77.6 nM

---

Would you kindly list IC50 for each of these compounds?
Biological target: Rat recombinant PDE10A (rPDE10A2) (Rattus norvegicus, UniProt Q9QYJ6)
Construct: made in house; host or cells: Sf9 insect cells (baculovirus)
Sequence (Q9QYJ6 1-794): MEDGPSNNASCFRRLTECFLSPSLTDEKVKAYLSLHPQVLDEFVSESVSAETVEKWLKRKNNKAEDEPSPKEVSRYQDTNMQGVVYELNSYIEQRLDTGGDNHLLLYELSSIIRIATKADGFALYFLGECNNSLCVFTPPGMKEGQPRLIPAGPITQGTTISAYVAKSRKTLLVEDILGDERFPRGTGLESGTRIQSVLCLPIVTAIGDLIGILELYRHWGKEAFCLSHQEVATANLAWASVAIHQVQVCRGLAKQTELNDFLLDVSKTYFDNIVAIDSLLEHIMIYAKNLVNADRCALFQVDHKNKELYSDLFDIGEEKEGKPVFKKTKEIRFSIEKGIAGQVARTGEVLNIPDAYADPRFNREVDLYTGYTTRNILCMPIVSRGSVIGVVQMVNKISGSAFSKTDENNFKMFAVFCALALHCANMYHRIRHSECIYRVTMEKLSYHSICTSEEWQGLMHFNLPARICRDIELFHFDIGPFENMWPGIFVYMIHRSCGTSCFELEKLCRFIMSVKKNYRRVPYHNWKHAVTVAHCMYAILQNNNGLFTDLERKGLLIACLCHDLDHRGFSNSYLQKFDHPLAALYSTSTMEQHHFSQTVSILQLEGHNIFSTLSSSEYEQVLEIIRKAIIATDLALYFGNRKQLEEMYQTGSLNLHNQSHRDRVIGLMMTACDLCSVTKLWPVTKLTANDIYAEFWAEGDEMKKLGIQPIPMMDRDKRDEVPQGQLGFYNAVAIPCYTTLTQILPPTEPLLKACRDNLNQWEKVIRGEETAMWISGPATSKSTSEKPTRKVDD
Experiment: In vitro assay PDE10A (SPA, 3H-cAMP)
Assay type: biochemical
Conditions: read-out: PIC50 PDE10 (converted)
Only the number, expressed in nM, is required.

Field: IC50 (Rat recombinant PDE10A (rPDE10A2) (Rattus norvegicus, UniProt Q9QYJ6)). Entry: CCCCOc1ccc(Cl)c(-c2nnc3c(C)nc4ccc(CN5CCN(C)CC5)cc4n23)c1 [Compound B-160]
2450

Field: IC50 (Rat recombinant PDE10A (rPDE10A2) (Rattus norvegicus, UniProt Q9QYJ6)). Entry: Cc1nc2ccc(C(=O)NCc3cccc(F)n3)cc2n2c(-c3ccccc3Cl)nnc12 [Compound B-32]
6.61

Field: IC50 (Rat recombinant PDE10A (rPDE10A2) (Rattus norvegicus, UniProt Q9QYJ6)). Entry: Cc1nc2ccc(N(C)C)cc2n2c(-c3ccccc3Cl)nnc12 [Compound B-87]
26.9

Field: IC50 (Rat recombinant PDE10A (rPDE10A2) (Rattus norvegicus, UniProt Q9QYJ6)). Entry: CCOc1ccc(Cl)c(-c2nnc3c(C)nc4ccc(N5CCN(C)CC5)cc4n23)c1 [Compound B-102]
162
